Assay: qHTS assay to identify small molecule HDAC inhibitors (AID 1259364);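 also: wild-type HCT-116 cells with endogenous class I/II HDAC activity; nearly all actives have a fitted effect of over 45% in size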
Conditions: HCT-116 HDAC-Glo I/II luminescence, 2 h; series mostly up to 92.4 µM
Inconclusive results are not listed. Calls of active or inactive are those of the source. Calls follow the shape of the dose curve; as a rule, active = well fitted inhibition curve with a large enough effect in the repeat runs; inconclusive = weak or mixed curves; inactive = flat fitted curve, though single readings scatter.
Labels: active, inactive

[[record]]
chem_smiles = "C=CC[N+]1([C@H]2C[C@H]3[C@@H]4CC[C@H]5C[C@H](OC(C)=O)[C@@H](N6CCCCC6)C[C@]5(C)[C@H]4CC[C@]3(C)[C@H]2OC(=O)CC)CCCCC1"
discrete_label = "inactive"

[[record]]
chem_smiles = "O=C(CC(=O)c1ccccc1)c1ccccc1"
discrete_label = "active"

[[record]]
chem_smiles = "Cc1ccccn1"
discrete_label = "inactive"

[[record]]
chem_smiles = "COC(=O)C(C)=O"
discrete_label = "inactive"

[[record]]
chem_smiles = "Cc1cccc(Oc2ccccc2)c1"
discrete_label = "inactive"

[[record]]
chem_smiles = "CN1CCN(C2=Nc3ccccc3Sc3ccc(Cl)cc32)CC1"
discrete_label = "inactive"


----------
Experiment: qHTS assay to identify small molecule agonists of the androgen receptor (AR) signaling pathway in the presence of an antagonist - cell viability counter screen (AID 1259379); also: nearly all actives have a fitted effect of over 25% in size; also: potency is read from the fitted curve at half-maximal effect
Settings: MDA-kb2 viability, CellTiter-Fluor, 16 h; series mostly up to 92.4 µM
Inconclusive results are not listed. The source made the active and inactive calls. Calls follow the shape of the dose curve; as a rule, active = well fitted cell-killing curve with a large enough effect in the repeat runs; inconclusive = weak or mixed curves, or effect the other way; inactive = flat fitted curve, though single readings scatter.
measurement_label: Potency

[[record]]
compound = "CCN(CC)CCOc1ccc2c(c1)C(=O)c1cc(OCCN(CC)CC)ccc1-2"
measurement_label = "Potency"
reading = "13.3 µM (active)"

[[record]]
compound = "CC(=O)/C(C)=C/C1C(C)=CCCC1(C)C (stereo not given)"
measurement_label = "Potency"
reading = "inactive"

[[record]]
compound = "O=C(NN1CCCC1)NS(=O)(=O)c1ccc(Cl)cc1"
measurement_label = "Potency"
reading = "inactive"

[[record]]
compound = "Cc1cc(C)c(S(=O)(=O)O)cc1N=Nc1cc(S(=O)(=O)O)c2ccccc2c1O"
measurement_label = "Potency"
reading = "27.3 µM (active)"

[[record]]
compound = "CCCCCCCCC(CO)CCCCCC (stereo not given)"
measurement_label = "Potency"
reading = "inactive"

[[record]]
compound = "Cc1ccc(C(C)c2ccc(C)c(C)c2)cc1C"
measurement_label = "Potency"
reading = "inactive"

[[record]]
compound = "CCCOc1ccc2nc(NC(=O)OC)[nH]c2c1"
measurement_label = "Potency"
reading = "inactive"

[[record]]
compound = "COc1cc(C(C)(C)C)c(O)c(C(C)(C)C)c1"
measurement_label = "Potency"
reading = "inactive"

[[record]]
compound = "CC(C)c1ccccc1C(C)C"
measurement_label = "Potency"
reading = "inactive"

[[record]]
compound = "COc1ccc(OC)c(OC)c1"
measurement_label = "Potency"
reading = "inactive"


----------
Target: Estrogen receptor (Homo sapiens)
Test: qHTS assay to identify small molecule antagonists of the estrogen receptor alpha (ER-alpha) signaling pathway (AID 743069)
Details: HEK293 ER-alpha-UAS-bla, beta-lactamase ratio, antagonist mode; series mostly up to 69.4 µM
Inconclusive results are not listed. Activity calls are given as the source filed them. Calls come from the whole dose curve; as a rule, active = well fitted curve in the direction sought with a large enough effect in the signal ratio in the repeat runs (not every such curve was filed as active); inconclusive = weak or mixed curves, or effect the other way; inactive = no such curve, though single readings can be large or run the other way; the % refers to the signal ratio.
measurement_label: outcome

[[record]]
compound = "COc1ccc2[nH]c(S(=O)Cc3ncc(C)c(OC)c3C)nc2n1 (stereo not drawn)"
subject_of_test = "Estrogen receptor (Homo sapiens)"
reading = "inactive"

[[record]]
compound = "CCCCCCCCN(C)C"
subject_of_test = "Estrogen receptor (Homo sapiens)"
reading = "inactive"

[[record]]
compound = "COCCO"
subject_of_test = "Estrogen receptor (Homo sapiens)"
reading = "inactive"


----------
Assay: qHTS assay for identifying genotoxic compounds that show differential cytotoxicity against isogenic chicken DT40 cell lines with known DNA damage response pathways - Rev3 mutant cell line (AID 743014); also: nearly all actives have a fitted effect of over 55% in size
Settings: chicken DT40 Rev3-/- viability, CellTiter-Glo, 40 h; series mostly up to 68.4 µM
Records with an inconclusive call do not appear. Active and inactive are the calls of the source. Calls come from the whole dose curve; as a rule, active = well fitted cell-killing curve with a large enough effect in the repeat runs; inconclusive = weak or mixed curves, or effect the other way; inactive = no such curve, though single readings can be large or run the other way.
Labels: active, inactive

[[record]]
compound = "CC(C)NCC(O)c1cc(O)cc(O)c1 (configuration not stated)"
discrete_label = "inactive"

[[record]]
compound = "O=C(O)Cc1sc(-c2ccccc2)nc1-c1ccc(Cl)cc1"
discrete_label = "inactive"

[[record]]
compound = "Cc1cccc(C(C)(C)C)c1O"
discrete_label = "inactive"

[[record]]
compound = "O=C(NS(=O)(=O)/C=C/c1cccs1)c1ccc(F)cc1Br"
discrete_label = "inactive"

[[record]]
compound = "CN1CCN(C2=Nc3ccccc3Sc3ccc(Cl)cc32)CC1"
discrete_label = "active"

[[record]]
compound = "CC(C)c1cccc(C(C)C)c1NC(=O)NS(=O)(=O)c1cc(C(C)(C)O)co1"
discrete_label = "inactive"

[[record]]
compound = "CCCCc1cc2ccccc2c(OCCN(C)C)n1"
discrete_label = "active"

[[record]]
compound = "FC(F)(F)C(F)(F)C(F)(F)C(F)(F)C(F)(F)C(F)(F)CCI"
discrete_label = "inactive"

[[record]]
compound = "Cc1ccccc1N=Nc1ccc(N=Nc2c(O)ccc3ccccc23)c(C)c1"
discrete_label = "inactive"

[[record]]
compound = "CC(=O)c1ccc2c(c1)[C@H](NC(=O)c1ccc(F)cc1)[C@@H](O)C(C)(C)O2"
discrete_label = "inactive"

[[record]]
compound = "CN1CCC(OC(c2ccccc2)c2ccccc2)CC1"
discrete_label = "active"

[[record]]
compound = "COc1ccc(C(C)=O)cc1"
discrete_label = "inactive"

[[record]]
compound = "CC(C(=O)O)c1ccc(-c2ccccc2)c(F)c1 (configuration not stated)"
discrete_label = "inactive"

[[record]]
compound = "CN1CCC(=C2c3ccccc3C=Cc3ccccc32)CC1"
discrete_label = "active"

[[record]]
compound = "COc1cc(C(C)(C)C)c(O)c(C(C)(C)C)c1"
discrete_label = "active"

[[record]]
compound = "CC1=CC(=O)/C(=C(/C)O)C(=O)O1"
discrete_label = "inactive"

[[record]]
compound = "Cc1ccc2c(ccc3ccccc32)c1"
discrete_label = "inactive"

[[record]]
compound = "NC1CCN(c2nc3c(cc2F)c(=O)c(C(=O)O)cn3-c2ccc(F)cc2F)C1 (configuration not stated)"
discrete_label = "active"

[[record]]
compound = "Cn1sccc1=O"
discrete_label = "active"

[[record]]
compound = "CC1CCc2cc(F)cc3c(=O)c(C(=O)O)cn1c23 (configuration not stated)"
discrete_label = "inactive"

[[record]]
compound = "CNS(=O)(=O)Cc1ccc2[nH]cc(CCN(C)C)c2c1"
discrete_label = "inactive"

[[record]]
compound = "COCCCCCCCCOCCC[Si](C)(O[Si](C)(C)C)O[Si](C)(C)C"
discrete_label = "active"

[[record]]
compound = "Cc1ncsc1CCO"
discrete_label = "inactive"

[[record]]
compound = "OC(CCN1CCCCC1)(c1ccccc1)C1CCCCC1 (configuration not stated)"
discrete_label = "inactive"

[[record]]
compound = "Cc1cc(C)c(S(=O)(=O)O)cc1N=Nc1cc(S(=O)(=O)O)c2ccccc2c1O"
discrete_label = "inactive"

[[record]]
compound = "C=CC(=O)OCC(C)OCC(C)OCC(C)OC(=O)C=C (configuration not stated)"
discrete_label = "active"

[[record]]
compound = "O=C(O)C1CCC(C(=O)O)CC1 (configuration not stated)"
discrete_label = "active"

[[record]]
compound = "NCc1ccccc1"
discrete_label = "inactive"

[[record]]
compound = "Oc1ccc2c(c1)OCO2"
discrete_label = "active"

[[record]]
compound = "c1ccc(CNCc2ccccc2)cc1"
discrete_label = "active"

[[record]]
compound = "CCCCCCCCCCCCCCCCCBr"
discrete_label = "inactive"

[[record]]
compound = "O=S1(=O)N=C(O)c2ccccc21"
discrete_label = "inactive"

[[record]]
compound = "CCCCOC(=O)/C=C\\C(=O)OCCCC"
discrete_label = "inactive"

[[record]]
compound = "CC(C)=CCCC(C)CC=O (configuration not stated)"
discrete_label = "inactive"

[[record]]
compound = "CN(c1nccc(=O)[nH]1)C1CCN(c2nc3ccccc3n2Cc2ccc(F)cc2)CC1"
discrete_label = "inactive"

[[record]]
compound = "Cc1ccc(C(C)c2ccc(C)c(C)c2)cc1C"
discrete_label = "inactive"

[[record]]
compound = "CCC(=O)OC(C)(C)C1CC=C(C)CC1 (configuration not stated)"
discrete_label = "active"

[[record]]
compound = "C#CCOC(=O)[C@@H](C)Oc1ccc(Oc2ncc(Cl)cc2F)cc1"
discrete_label = "inactive"

[[record]]
compound = "CCCCCC/C=C/C=O"
discrete_label = "inactive"

[[record]]
compound = "O=C(CC(=O)c1ccccc1)c1ccccc1"
discrete_label = "active"

[[record]]
compound = "CC(=O)O[C@H]1C[C@@H]2CC[C@@H]3[C@H](CC[C@@]4(C)[C@H]3C[C@H]([N+]3(C)CCCCC3)[C@@H]4OC(C)=O)[C@@]2(C)C[C@@H]1N1CCCCC1"
discrete_label = "inactive"

[[record]]
compound = "CC(C)CC=O"
discrete_label = "inactive"


Source listed as PubChem BioAssay (Tox21).
